These measurements were taken from patent US20260265238A1.

# testedSystem: SMARCA2-HiBiT HeLa cells (protein which is expressed from the SMARCA2 gene) (Homo sapiens, UniProt P51531)
# Construct: protein which is expressed from the SMARCA2 and SMARCA4 genes; host or cells: HeLa (SMARCA2-HiBiT engineered line)
# Sequence (P51531 whole entry): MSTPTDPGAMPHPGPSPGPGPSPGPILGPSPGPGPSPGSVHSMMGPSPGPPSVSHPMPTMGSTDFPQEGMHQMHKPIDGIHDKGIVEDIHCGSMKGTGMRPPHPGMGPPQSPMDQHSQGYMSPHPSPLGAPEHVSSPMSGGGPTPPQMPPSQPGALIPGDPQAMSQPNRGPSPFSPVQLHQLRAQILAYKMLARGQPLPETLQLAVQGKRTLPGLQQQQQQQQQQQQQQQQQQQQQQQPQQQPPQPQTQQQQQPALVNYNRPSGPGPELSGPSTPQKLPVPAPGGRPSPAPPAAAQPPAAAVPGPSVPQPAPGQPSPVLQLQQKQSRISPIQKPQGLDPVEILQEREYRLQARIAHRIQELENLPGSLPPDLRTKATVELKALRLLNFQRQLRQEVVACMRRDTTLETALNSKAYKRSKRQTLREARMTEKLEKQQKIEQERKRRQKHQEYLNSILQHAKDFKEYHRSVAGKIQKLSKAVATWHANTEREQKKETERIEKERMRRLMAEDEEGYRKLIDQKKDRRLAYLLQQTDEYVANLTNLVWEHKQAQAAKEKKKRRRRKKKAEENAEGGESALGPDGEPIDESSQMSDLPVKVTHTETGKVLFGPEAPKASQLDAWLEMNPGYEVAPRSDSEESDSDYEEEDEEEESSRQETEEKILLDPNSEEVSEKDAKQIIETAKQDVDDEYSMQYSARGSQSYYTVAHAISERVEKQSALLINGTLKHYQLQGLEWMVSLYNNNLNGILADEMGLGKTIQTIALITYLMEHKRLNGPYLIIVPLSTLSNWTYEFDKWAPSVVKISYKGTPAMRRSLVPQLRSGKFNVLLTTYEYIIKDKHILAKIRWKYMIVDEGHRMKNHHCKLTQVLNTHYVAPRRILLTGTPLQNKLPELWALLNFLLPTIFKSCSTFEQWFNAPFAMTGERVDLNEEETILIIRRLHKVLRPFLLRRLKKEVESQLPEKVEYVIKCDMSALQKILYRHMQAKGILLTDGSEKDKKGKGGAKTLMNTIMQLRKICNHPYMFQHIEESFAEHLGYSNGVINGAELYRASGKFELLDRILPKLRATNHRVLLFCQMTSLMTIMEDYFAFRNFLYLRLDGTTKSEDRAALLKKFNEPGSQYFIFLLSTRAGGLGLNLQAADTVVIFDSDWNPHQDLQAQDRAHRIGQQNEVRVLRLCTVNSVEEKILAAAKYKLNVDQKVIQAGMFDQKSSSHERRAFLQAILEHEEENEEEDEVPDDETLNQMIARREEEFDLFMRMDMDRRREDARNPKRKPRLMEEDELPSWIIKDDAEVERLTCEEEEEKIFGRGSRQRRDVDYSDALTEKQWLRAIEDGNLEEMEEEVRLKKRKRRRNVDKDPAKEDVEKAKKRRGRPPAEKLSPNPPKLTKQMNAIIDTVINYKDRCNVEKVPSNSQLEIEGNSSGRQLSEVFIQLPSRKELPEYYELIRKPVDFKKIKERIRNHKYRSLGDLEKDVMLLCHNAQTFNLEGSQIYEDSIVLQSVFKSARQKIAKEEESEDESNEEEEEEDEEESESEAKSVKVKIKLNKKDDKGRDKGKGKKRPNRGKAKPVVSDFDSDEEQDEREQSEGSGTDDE
# experimentNotes: SMARCA2 degradation assay (HiBiT-fusion HeLa cell line, 24 h, luminescence)
# Type: cell-based
# Excerpt: SMARCA2 and SMARCA4 Degradation Assay Degradation of protein which is expressed from the SMARCA2 and SMARCA4 genes was monitored using engineered HiBiT-fusion HeLa cell lines from Promega. […] 24-hours post-treatment, protein levels were quantified with the addition of HiBiT lytic buffer, LgBiT protein, and HiBiT substrate, according to manufacturer's specifications. […]
DC50 for assorted compounds

C[C@@H](O)C#Cc1nccc(N2CCCN(c3cc(-c4ccccc4O)nnc3N)CC2)n1 [Compound P-322] :: 50 to 500 nM

# next compound below
Value lookup for DC50; key = COCC1CN(CC#Cc2nccc(N3CCN(c4cc(-c5ccccc5O)nnc4N)CC[C@H]3C)n2)CCO1 (stereo partly drawn) [Compound P-161]
50 to 500 nM
